Test system: IL-10 induced pSTAT3
ASSAY PROCEDURE: IL-10-induced pSTAT3 in human whole blood (lymphocytes)
Assay type: cell-based
TEST PARAMETERS: Lymphocyte, JAK1/TYK2, read-out: IL-10 induced pSTAT3, cellular potency IC50
Method: Human whole blood was collected from healthy donors via vein puncture into Vacutainer collection tubes containing sodium heparin in accordance with Pfizer protocols (Protocol No. GOHW RDP-01) approved by the Shulman Institutional Review Board. Blood was warmed to 37° C. priorto use. Human whole blood was aliquoted (90 μL/well) in 96-well, deep-well, V-bottom plates and treated with compounds (5 μL/well) at different concentrations up to 60 μM (0.2% DMSO final) at 37° C. for 60 minutes. […]
PROPERTY MEASURED: IC50 (µM)

{"columns": ["COMPOUND", "ASSAY VALUE"],
 "data": [
  ["C[C@H](O)CS(=O)(=O)N[C@H]1C[C@@H](N(C)c2ncnc3[nH]ccc23)C1 (single isomer, unassigned)", 0.233],
  ["CN(c1ncnc2[nH]ccc12)[C@H]1C[C@@H](NS(=O)(=O)CCCO)C1", 0.675],
  ["CCCS(=O)(=O)N[C@H]1C[C@@H](N(C)c2ncnc3[nH]ccc23)C1 [Abrocitinib, reference compound]", 3.7],
  ["C[C@@H](O)CS(=O)(=O)N[C@H]1C[C@@H](N(C)c2ncnc3[nH]ccc23)C1 (single isomer, unassigned)", 0.488]
]}

---

TARGET UNDER TEST: JAK1 (Homo sapiens, UniProt P23458)
Sequence (P23458 whole entry): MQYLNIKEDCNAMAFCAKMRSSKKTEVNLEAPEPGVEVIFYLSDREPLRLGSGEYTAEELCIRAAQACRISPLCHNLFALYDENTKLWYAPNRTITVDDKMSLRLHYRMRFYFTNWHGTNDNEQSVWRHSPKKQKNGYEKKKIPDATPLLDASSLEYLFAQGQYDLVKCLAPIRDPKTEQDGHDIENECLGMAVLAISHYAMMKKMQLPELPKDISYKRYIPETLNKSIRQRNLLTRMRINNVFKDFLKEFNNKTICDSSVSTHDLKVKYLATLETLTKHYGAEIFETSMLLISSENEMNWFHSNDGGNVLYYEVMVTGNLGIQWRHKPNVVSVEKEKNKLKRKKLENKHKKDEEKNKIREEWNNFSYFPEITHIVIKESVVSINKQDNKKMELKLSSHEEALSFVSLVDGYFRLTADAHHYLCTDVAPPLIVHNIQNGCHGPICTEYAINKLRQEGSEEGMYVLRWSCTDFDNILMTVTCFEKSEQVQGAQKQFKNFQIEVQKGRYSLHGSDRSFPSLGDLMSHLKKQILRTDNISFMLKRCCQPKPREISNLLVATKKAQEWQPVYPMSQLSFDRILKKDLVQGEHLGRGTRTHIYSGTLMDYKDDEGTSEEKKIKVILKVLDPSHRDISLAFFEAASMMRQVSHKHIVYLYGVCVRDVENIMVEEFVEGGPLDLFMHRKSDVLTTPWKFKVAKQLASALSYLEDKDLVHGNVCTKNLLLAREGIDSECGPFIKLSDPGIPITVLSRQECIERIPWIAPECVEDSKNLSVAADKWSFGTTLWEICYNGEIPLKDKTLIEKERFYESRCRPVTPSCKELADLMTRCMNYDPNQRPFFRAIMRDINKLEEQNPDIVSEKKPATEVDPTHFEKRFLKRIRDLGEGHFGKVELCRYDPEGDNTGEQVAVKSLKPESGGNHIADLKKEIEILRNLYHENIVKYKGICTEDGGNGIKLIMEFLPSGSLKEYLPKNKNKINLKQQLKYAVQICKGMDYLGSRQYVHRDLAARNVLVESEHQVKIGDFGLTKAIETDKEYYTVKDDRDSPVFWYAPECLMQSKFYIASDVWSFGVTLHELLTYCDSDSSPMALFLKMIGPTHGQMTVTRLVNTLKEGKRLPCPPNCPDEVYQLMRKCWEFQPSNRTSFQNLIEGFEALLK
PROPERTY MEASURED: IC50

{"columns": ["MOLECULE", "ASSAY VALUE"],
 "data": [
  ["C[C@H](O)CS(=O)(=O)N[C@H]1C[C@@H](N(C)c2ncnc3[nH]ccc23)C1 (single isomer, unassigned) [IA (M2)]", "17.9 nM"],
  ["C[C@@H](O)CS(=O)(=O)N[C@H]1C[C@@H](N(C)c2ncnc3[nH]ccc23)C1 (single isomer, unassigned) [IC (M3)]", "56.7 nM"]
]}

---

Tested on: IFNg induced pSTATI
ASSAY PROCEDURE: IFNγ-induced pSTAT1 in human whole blood (CD14+ cells)
Type: cell-based
TEST PARAMETERS: JAK1/JAK2, read-out: IFNg induced pSTATI, cellular potency IC50
Protocol: Human whole blood was collected from healthy donors via vein puncture into Vacutainer collection tubes containing sodium heparin in accordance with Pfizer protocols (Protocol No. GOHW RDP-01) approved by the Shulman Institutional Review Board. Blood was warmed to 37° C. priorto use. Human whole blood was aliquoted (90 μL/well) in 96-well, deep-well, V-bottom plates and treated with compounds (5 μL/well) at different concentrations up to 60 μM (0.2% DMSO final) at 37° C. for 60 minutes. […]
PROPERTY MEASURED: IC50 (nM)

{"columns": ["MOLECULE", "ASSAY VALUE"],
 "data": [
  ["C[C@H](O)CS(=O)(=O)N[C@H]1C[C@@H](N(C)c2ncnc3[nH]ccc23)C1 (single isomer, unassigned)", 2160],
  ["C[C@@H](O)CS(=O)(=O)N[C@H]1C[C@@H](N(C)c2ncnc3[nH]ccc23)C1 (single isomer, unassigned)", 4250],
  ["CN(c1ncnc2[nH]ccc12)[C@H]1C[C@@H](NS(=O)(=O)CCCO)C1", 1950],
  ["CCCS(=O)(=O)N[C@H]1C[C@@H](N(C)c2ncnc3[nH]ccc23)C1 [Abrocitinib, reference compound]", 1690]
]}
